Recorded values, source patent US20250205204A1.

experiment: Metabolic stability in liver microsomes (MLM); assay type: in vitro ADME, mice; conditions: percent remaining at 60 min, 1 μM compound, 0.25 mg/mL protein, 1 mM NADPH
measuredMetric: Met Stab % (60 mins) MLM (%)
Quick reminder: number only, in %, skip the unit.

Please review the entries below; each comes with its answer.
(Q) Which Met Stab % (60 mins) MLM is listed for Fc1ccc2nc(N/N=C3/CCc4ccccc43)sc2c1 [7-47] ?
(A) 0

(Q) What Met Stab % (60 mins) MLM value was documented for this compound, O=C(Nc1nc2ccccc2s1)C1CCc2ccccc21 (stereo not drawn) [7-51] ?
(A) 1

Next:
(Q) State the recorded Met Stab % (60 mins) MLM for this entry: O=C1/C(=N\Nc2ccc3ccccc3n2)Cc2ccccc21 [7-80]
(A) 4
